Target: 5-lipoxygenase (Rattus norvegicus)
Construct: host or cells: RBL-1 (rat basophilic leukemia cells)
Assay: 5-lipoxygenase inhibition assay (RBL-1 supernatant, arachidonic acid, HPLC of 5-HETE)
Assay type: biochemical, rat (basophilic leukemia cells RBL-1, ATCC CRL1378)
Conditions: Test Example 2, Table 2; read-out: IC50 value of 5-lipoxygenase
PROPERTY_NAME: IC50 (nM)

>  <COMPOUND>
Cc1cccc(-c2cc3cc(O)c(O)cc3oc2=O)c1 [Example 12]

>  <IC50 / nM>
280

$$$$

P. O=c1oc2c(O)c(O)ccc2cc1-c1ccc([N+](=O)[O-])cc1 [Example 23, 3-(4-nitrophenyl)-7,8-dihydroxycoumarin]
Q. CCc1ccc(-c2cc3ccc(O)c(O)c3oc2=O)cc1 [Example 19]
R. O=c1oc2cc(O)c(O)cc2cc1-c1cccc(Cl)c1 [Example 9, 3-(3-chlorophenyl)-6,7-dihydroxycoumarin]
Task for the reader: rank each entry by its IC50, from the minimum upward. # output: labels, in the requested order
R, Q, P
(R: 160 nM, Q: 250 nM, P: 530 nM)

###

Experiment: Formation of deacylated compounds by esterases in rat platelet enzyme solution (HPLC)
Type: in vitro ADME, rat (platelets)
Details: rat, platelet enzyme solution; reaction time 60 minute, 37° C., enzyme solution; read-out: conversion ratio to Formula 34b
PROPERTY_NAME: metabolised at 1 h, 10 µM (%)

>  <SMILES_STR>
CC(=O)Oc1cc2cc(-c3cccc(Cl)c3)c(=O)oc2cc1OC(C)=O

>  <RESULT_VALUE>
72.8

$$$$
>  <SMILES_STR>
CCC(=O)Oc1cc2cc(-c3cccc(Cl)c3)c(=O)oc2cc1OC(=O)CC

>  <RESULT_VALUE>
60.4

$$$$

###

Test: Formation of deacylated compounds by esterases in rat platelet enzyme solution (HPLC)
Format: in vitro ADME, rat (platelets)
Conditions: rat, platelet enzyme solution; reaction time 30 minute, 37° C., enzyme solution; read-out: conversion ratio to Formula 34b
PROPERTY_NAME: metabolised at 0.5 h, 10 µM (%)

A. CC(=O)Oc1cc2cc(-c3cccc(Cl)c3)c(=O)oc2cc1OC(C)=O [Example 40]
B. CCC(=O)Oc1cc2cc(-c3cccc(Cl)c3)c(=O)oc2cc1OC(=O)CC [Example 57]
Rank A against B by their metabolised at 0.5 h, 10 µM values and give the higher one. Give the chosen item's label as your response.
A
(A: 70.7%, B: 42.4%)

###

Molecular target: 5-lipoxygenase (Rattus norvegicus, UniProt P12527)
Construct: host or cells: RBL-1 (rat basophilic leukemia cells)
Test: 5-lipoxygenase inhibition assay (RBL-1 supernatant, arachidonic acid, HPLC of 5-HETE)
Type: biochemical, rat (basophilic leukemia cells RBL-1, ATCC CRL1378)
Overview of recorded IC50 for various compounds
Lab book: enter the figure in µM, no units written.

>  <COMPOUND>
O=c1ccc2cc(O)c(O)cc2o1 [Esculetin, 6,7-dihydroxycoumarin, reference compound]

>  <PROPERTY_NAME>
IC50

>  <READOUT_UNITS>
µM

>  <RESULT_VALUE>
4.3

$$$$

// switching to the query compound
Quick one: IC50 of O=c1cc(-c2ccccc2)oc2cc(O)c(O)c(O)c12 [Baicalein, 5,6,7-trihydroxyflavone, reference compound] ?
2.4

###

Biological target: 12-lipoxygenase (Rattus norvegicus)
Construct: The platelets were then sonicated at 4° C. and centrifuged at 100,000×g for 30 minutes to obtain a supernatant as a 12-lipoxygenase enzyme solution; from tissue; host or cells: Sprague Dawley rat platelets (from aortic blood), sonicated, 100,000 x g supernatant
Sequence (F1LQ70 1-663): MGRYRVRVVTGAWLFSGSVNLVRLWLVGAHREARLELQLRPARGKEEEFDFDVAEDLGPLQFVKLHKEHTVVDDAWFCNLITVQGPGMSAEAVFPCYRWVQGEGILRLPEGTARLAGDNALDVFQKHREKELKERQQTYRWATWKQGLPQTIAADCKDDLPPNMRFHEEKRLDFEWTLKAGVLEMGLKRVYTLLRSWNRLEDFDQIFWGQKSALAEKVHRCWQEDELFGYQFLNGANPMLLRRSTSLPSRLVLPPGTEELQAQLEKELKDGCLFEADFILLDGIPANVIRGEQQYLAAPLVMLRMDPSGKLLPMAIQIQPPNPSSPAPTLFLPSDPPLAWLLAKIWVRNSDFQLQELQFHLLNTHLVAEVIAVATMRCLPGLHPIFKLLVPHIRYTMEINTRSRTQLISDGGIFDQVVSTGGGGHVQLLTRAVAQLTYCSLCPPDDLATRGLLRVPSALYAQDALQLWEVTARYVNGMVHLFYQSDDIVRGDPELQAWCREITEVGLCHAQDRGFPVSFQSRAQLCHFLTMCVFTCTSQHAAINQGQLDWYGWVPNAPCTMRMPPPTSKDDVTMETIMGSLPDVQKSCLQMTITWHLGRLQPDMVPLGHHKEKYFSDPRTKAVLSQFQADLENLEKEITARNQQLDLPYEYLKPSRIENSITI
Experiment: 12-lipoxygenase inhibition assay (rat platelet supernatant, arachidonic acid, HPLC of 12-HETE)
Format: biochemical, Sprague Dawley male rat (platelets)
Details: read-out: 12-Lipoxygenase inhibiting activity IC50 value; Test Example 5, Table 22
PROPERTY_NAME: pIC50
Convention used: pIC50 is expressed as -log10 of the molar concentration.

Could you share which pIC50 value was measured for O=c1cc(-c2ccccc2)oc2cc(O)c(O)c(O)c12 [Baicalein, 5,6,7-trihydroxyflavone, reference compound] ?
7.38

###

Target: 12-lipoxygenase (Rattus norvegicus, UniProt F1LQ70)
Construct: The platelets were then sonicated at 4° C. and centrifuged at 100,000×g for 30 minutes to obtain a supernatant as a 12-lipoxygenase enzyme solution; from tissue; host or cells: Sprague Dawley rat platelets (from aortic blood), sonicated, 100,000 x g supernatant
Assay: 12-lipoxygenase inhibition assay (rat platelet supernatant, arachidonic acid, HPLC of 12-HETE)
Type: biochemical, Sprague Dawley male rat (platelets)
Conditions: Test Example 5, Table 22; read-out: 12-Lipoxygenase inhibiting activity IC50 value
pIC50: −log10 of the molar value.
PROPERTY_NAME: pIC50

Study these solved cases before continuing.
>  <SMILES_STR>
O=c1oc2cc(O)c(O)cc2cc1-c1csc2ccccc12

>  <TEST_TARGET>
12-lipoxygenase (Rattus norvegicus, UniProt F1LQ70)

>  <pIC50>
8.00

$$$$
>  <SMILES_STR>
O=c1oc2cc(O)c(O)cc2cc1-c1ccc2ccccc2c1

>  <TEST_TARGET>
12-lipoxygenase (Rattus norvegicus, UniProt F1LQ70)

>  <pIC50>
8.34

$$$$

A. O=c1oc2c(O)c(O)ccc2cc1-c1csc2ccccc12
B. O=c1oc2c(O)c(O)ccc2cc1-c1ccc2ccccc2c1
// compare measured pIC50 between A and B ; output the lower one Reply with the label of the item you choose.
B

###

Target: 5-lipoxygenase (Rattus norvegicus, UniProt P12527)
Construct: host or cells: RBL-1 (rat basophilic leukemia cells)
Sequence (P12527 1-673): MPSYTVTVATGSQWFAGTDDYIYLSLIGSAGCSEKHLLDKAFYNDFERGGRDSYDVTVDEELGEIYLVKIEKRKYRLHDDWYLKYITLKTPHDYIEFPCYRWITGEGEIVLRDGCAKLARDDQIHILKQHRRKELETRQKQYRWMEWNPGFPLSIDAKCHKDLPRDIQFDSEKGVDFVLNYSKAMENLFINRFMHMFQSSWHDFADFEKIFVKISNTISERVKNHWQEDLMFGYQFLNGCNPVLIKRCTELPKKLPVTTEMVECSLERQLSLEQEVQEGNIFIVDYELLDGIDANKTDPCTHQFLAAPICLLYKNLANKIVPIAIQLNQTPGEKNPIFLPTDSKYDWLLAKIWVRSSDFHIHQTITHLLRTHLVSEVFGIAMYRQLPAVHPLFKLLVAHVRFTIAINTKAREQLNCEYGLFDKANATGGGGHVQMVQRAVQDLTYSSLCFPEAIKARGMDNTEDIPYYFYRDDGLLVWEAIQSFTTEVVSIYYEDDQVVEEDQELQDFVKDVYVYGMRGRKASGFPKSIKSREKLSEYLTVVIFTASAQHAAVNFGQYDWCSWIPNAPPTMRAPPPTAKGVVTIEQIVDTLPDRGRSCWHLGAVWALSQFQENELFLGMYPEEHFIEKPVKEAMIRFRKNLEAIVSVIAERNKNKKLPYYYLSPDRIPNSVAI
Assay: 5-lipoxygenase inhibition assay (RBL-1 supernatant, arachidonic acid, HPLC of 5-HETE)
Format: biochemical, rat (basophilic leukemia cells RBL-1, ATCC CRL1378)
Details: read-out: IC50 value of 5-lipoxygenase; Test Example 2, Table 2
PROPERTY_NAME: pIC50
# pIC50 = -log10(concentration in molar units)

Entry under review: O=c1cc(-c2ccccc2)oc2cc(O)c(O)c(O)c12 [Baicalein, 5,6,7-trihydroxyflavone, reference compound] . Reported pIC50?
5.62

Each recorded value in this set is attributed to patent US5574062A.
